Listed below: ELISA titer (NANOBODY concentration giving extinction 1) values for each entry.
target: recombinant his6-tagged haemagglutinin HA1, Abcam ab53875; experiment: ELISA on recombinant haemagglutinin, detection with rabbit anti-NANOBODY serum
Quantity Name: ELISA titer (NANOBODY concentration giving extinction 1) (ng/mL)

Binder | Result Comparator | Experimental Result
IV133 (VHH) VHH: QVQLQQSGGGLVQPGGSLRLSCAASSSGFSFNPMGWYRQAPGKQRELVATMTSGGTTNYADSVKGRFTISRDNAKTTVYLQMNSLKPEDTAVYYCNARGPRRATTGWITDDYWGQGTQVTVSS | = | 32.5
IV131 (VHH) VHH: QVQLQQSGGGLVQAGGSLRLSCAASGSGFSFNPMGWYRQAPGKQRELVASITSGGTTNYVDSVKGRFTISRGNAKNTVYLQMNSLKPEDTAVYYCAAEGPRRRGSTWYTDNYWGQGTQVTVSS | = | 32
IV154 (VHH) VHH: QVQLQESGGGLVQAGGSLRLSCAASGRPFSSAAMGWFRQAPGKEREFVSAISYTGDVTRYADSVKGRFTISRDNTRNTLTLEMNSLKPEDTAVYYCAARTYAGVRAHTYDYDYWGQGTQVTVSS | > | 10000
IV156 (VHH) VHH: QVQLQQSGGGLVQPGGSLRLSCAASRSGFSFNPMGWYRQAPGKQRELVATITSGGTTNYADSVKGRFTISTDNAKTTVFLQMNSLKPEDTAVYYCNGRGPRRGTAGWFTDDYWGQGTQVTVSS | = | 33
